Source: patent US20230303654A1

- tgt: purified 6× His-tagged SARS-CoV-2 spike protein (ELISA coat, Example 12) (SARS-CoV-2, UniProt P0DTC2 14-1213)
Provide the recorded log10 of EC50 for the entries that follow.
Annotation: log10 of EC50, nM basis.

stdin: Form field: reported log10 of EC50 of ab34 (scFv, V domains shown) VH: EVQLVESGAEVKKPGESLKISCKGSGYTFTRYWIGWVRQMPGKGLEWMGIIYPGDADVRYSPSFQGHVTISADKSISTAYLQWNSLKASDTAMYYCARLPQYCRKGVCKRWFDPWGQGTLVTVSS VL: EIVLTQSPSSVSASVGDRVTITCRASQGIRSWLAWYQQKPGKAPKLLIYAASSLQSGVPSRFSGSGSGTDFTLTISSLQPEDFATYYCQQGHSTPYTFGQGTNLEIK
stdout: 1.36

stdin: Form field: reported log10 of EC50 of ab47 (scFv, V domains shown) VH: EVQLVESGAEVKKPGESLKISCKGSGYTFTRYWIGWVRQMPGKGLEWMGIIYPGDSDTRYSPSFQGHVTISADKSISTAYLQWNSLKASDTAMYYCARLPQYCQNGVCHRWFDPWGQGTLVTVSS VL: EIVLTQSPSSVSASVGDRVTITCRASQGIRNWLAWYQQKPGKAPKLLIYAASSLQSGVPSRFSGSGSGTDFTLTISSLQPEDFATYYCQQGDQDPLTFGQGTNLEIK
stdout: 1.91

stdin: Form field: reported log10 of EC50 of ab48 (scFv, V domains shown) VH: EVQLVESGAEVKKPGESLKISCKGSGYTFTRYWIGWVRQMPGKGLEWMGIIYPGDNDVRYSPSFQGHVTISADKSISTAYLQWNSLKASDTAMYYCARLPQYCDKGICKRWFDPWGQGTLVTVSS VL: EIVLTQSPSSVSASVGDRVTITCRASQGISSWLAWYQQKPGKAPKLLIYAASSLQSGVPSRFSGSGSGTDFTLTISSLQPEDFATYYCQQGDQLPYTFGQGTNLEIK
stdout: 3.19

stdin: Form field: reported log10 of EC50 of ab45 (scFv, V domains shown) VH: EVQLVESGAEVKKPGESLKISCKGSGYTFTRYWIGWVRQMPGKGLEWMGIIYPGDSDTRYSPSFQGHVTISADKSISTAYLQWNSLKASDTAMYYCARLPQYCSSGVCQRWFDPWGQGTLVTVSS VL: EIVLTQSPSSVSASVGDRVTITCRASQGISSWLAWYQQKPGKAPKLLIYAASSLQSGVPSRFSGSGSGTDFTLTISSLQPEDFATYYCQQGNQFPYTFGQGTNLEIK
stdout: 1.57

stdin: Form field: reported log10 of EC50 of ab50 (scFv, V domains shown) VH: EVQLVESGAEVKKPGESLKISCKGSGYTFTRYWIGWVRQMPGKGLEWMGIIYPGDADVRYSPSFQGHVTISADKSISTAYLQWNSLKASDTAMYYCARLPQYCSSGSCFRWFDPWGQGTLVTVSS VL: EIVLTQSPSSVSASVGDRVTITCRASQGISSWLAWYQQKPGKAPKLLIYAASSLQSGVPSRFSGSGSGTDFTLTISSLQPEDFATYYCQQGYSTPYTFGQGTNLEIK
stdout: 2.22

stdin: Form field: reported log10 of EC50 of ab41 (scFv, V domains shown) VH: EVQLVESGAEVKKPGESLKISCKGSGYTFTRYWIGWVRQMPGKGLEWMGIIYPGDNDVRYSPSFQGHVTISADKSISTAYLQWNSLKASDTAMYYCARLPQYCSAGVCFRWFDPWGQGTLVTVSS VL: EIVLTQSPSSVSASVGDRVTITCRASQGISNWLAWYQQKPGKAPKLLIYAASSLQSGVPSRFSGSGSGTDFTLTISSLQPEDFATYYCQQGYSYPYTFGQGTNLEIK
stdout: 1.53

Return reported log10 of EC50 values for all items listed beneath this line.
1. ab42 (scFv, V domains shown) VH: EVQLVESGAEVKKPGESLKISCKGSGYTFTRYWIGWVRQMPGKGLEWMGIIYPGDSDTRYSPSFQGHVTISADKSISTAYLQWNSLKASDTAMYYCARLPQYCQSGVCKRWFDPWGQGTLVTVSS VL: EIVLTQSPSSVSASVGDRVTITCRASQGIRSWLAWYQQKPGKAPKLLIYAASSLQSGVPSRFSGSGSGTDFTLTISSLQPEDFATYYCQQGDQYPLTFGQGTNLEIK
2. ab43 (scFv, V domains shown) VH: EVQLVESGAEVKKPGESLKISCKGSGYTFTRYWIGWVRQMPGKGLEWMGIIYPGDSDTRYSPSFQGHVTISADKSISTAYLQWNSLKASDTAMYYCARLPQYCSAGVCFRWFDPWGQGTLVTVSS VL: EIVLTQSPSSVSASVGDRVTITCRASQGISSWLAWYQQKPGKAPKLLIYAASSLQSGVPSRFSGSGSGTDFTLTISSLQPEDFATYYCQQGHSFPYTFGQGTNLEIK
3. ab32 (scFv, V domains shown) VH: EVQLVESGAEVKKPGESLKISCKGSGYTFTRYWIGWVRQMPGKGLEWMGIIYPGDSETRYSPSFQGHVTISADKSISTAYLQWNSLKASDTAMYYCARLPQYCRRGVCKRWFDPWGQGTLVTVSS VL: EIVLTQSPSSVSASVGDRVTITCRASQGISSWLAWYQQKPGKAPKLLIYAASSLQSGVPSRFSGSGSGTDFTLTISSLQPEDFATYYCQQGNQLPYTFGQGTNLEIK
4. ab23 (scFv, V domains shown) VH: EVQLVQSGAEVKKPGSSVKVSCRSSGGTFSTYGITWVRQAPGQGLEWMGRIIPSLGIPNYAQKFQGRVTITADTSVSTAWMELSSLESDDTAIYYCARENIDLATNDFWGQGTLVTVSS VL: QSALTQPPSASGSPGQSVTISCTGTSRDIGAYGYVSWYQQVPGKAPKLIIYEVRNRPSGVSSRFSGSKSGNTASLTISGLQAEDEADYYCSSYTSSSTLDVVFGGGTKLTVL

stdout:
2.86
2.33
1.12
2.06
